meta.source: patent US12398093B2

- experimental_protocol: In vitro absorption, Caco-2 permeability
- Type: in vitro ADME
- measurement_conditions: human, Caco-2, pH 6.5, Caco-2, pH 6.5/7.4, 1.0×10^−5 M; read-out: B-A Permeability, 2nd
reported_endpoint: Papp B→A (nm/s)
Record the value in nm/s, omitting the unit from your answer.

1. COc1cc(CC(C)C)c(OC)cc1CCN [2C-iBu, 2,5-dimethoxy-4-isobutylphenethylamine]: 79.2

Now, please, on to the next compound.
Value of Papp B→A reported for the compound COc1cc(C[C@@H](C)N)c(OC)cc1I [R-DOI] is 193

---

- experimental_protocol: In vitro absorption, Caco-2 permeability
- Type: in vitro ADME
- measurement_conditions: human, Caco-2, pH 6.5, Caco-2, pH 6.5/7.4, 1.0×10^−5 M; read-out: % Recovery A-B, 2nd
recovery reference
Give the value in % but do not write % after it.

1) COc1cc(C[C@@H](C)N)c(OC)cc1I [R-DOI]: 72

Noted for COc1cc(CC(C)C)c(OC)cc1CCN [2C-iBu, 2,5-dimethoxy-4-isobutylphenethylamine] : its recovery reads 48

---

// reported pEC50 beta arrestin recruitment for each item listed
- study_system: 5-HT2AR-Tango construct (Homo sapiens, UniProt P28223)
- Construct: expressed in transfected cells; host or cells: HTLA cells (transient transfection)
- Sequence (P32121 whole entry partner, one chain of several): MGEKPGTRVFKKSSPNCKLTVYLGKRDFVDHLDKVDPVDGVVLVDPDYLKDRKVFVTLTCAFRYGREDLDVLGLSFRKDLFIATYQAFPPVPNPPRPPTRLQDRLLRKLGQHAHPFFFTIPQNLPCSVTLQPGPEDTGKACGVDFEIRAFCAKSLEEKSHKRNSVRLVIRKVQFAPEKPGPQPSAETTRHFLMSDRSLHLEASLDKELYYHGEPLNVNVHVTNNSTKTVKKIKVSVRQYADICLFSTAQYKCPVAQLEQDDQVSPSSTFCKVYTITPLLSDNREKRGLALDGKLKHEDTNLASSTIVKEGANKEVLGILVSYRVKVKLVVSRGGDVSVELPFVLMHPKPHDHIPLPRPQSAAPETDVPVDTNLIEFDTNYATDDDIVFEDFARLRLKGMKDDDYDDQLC
- experimental_protocol: β-arrestin-2 recruitment, PRESTO-Tango assay in HTLA cells
- Type: cell-based
- measurement_conditions: Table 5
Lab note: write the figure by itself, no unit.

COc1cc(C(C)C)c(OC)cc1CC(C)N (stereo not shown) yielded pEC50 beta arrestin recruitment of 8.24

Record COc1cc(CCN)c(OC)cc1Br , field pEC50 beta arrestin recruitment: 5.99

Entry COc1ccc(OC)c(CCN)c1 ; pEC50 beta arrestin recruitment = 7.07

According to the records, this compound COc1cc(C(C)C)c(OC)cc1CCN displays pEC50 beta arrestin recruitment of 7.8

---

- study_system: human 5-HT2A receptor (Homo sapiens, UniProt P28223)
- Construct: expressed in transfected cells
- Sequence (P28223 whole entry): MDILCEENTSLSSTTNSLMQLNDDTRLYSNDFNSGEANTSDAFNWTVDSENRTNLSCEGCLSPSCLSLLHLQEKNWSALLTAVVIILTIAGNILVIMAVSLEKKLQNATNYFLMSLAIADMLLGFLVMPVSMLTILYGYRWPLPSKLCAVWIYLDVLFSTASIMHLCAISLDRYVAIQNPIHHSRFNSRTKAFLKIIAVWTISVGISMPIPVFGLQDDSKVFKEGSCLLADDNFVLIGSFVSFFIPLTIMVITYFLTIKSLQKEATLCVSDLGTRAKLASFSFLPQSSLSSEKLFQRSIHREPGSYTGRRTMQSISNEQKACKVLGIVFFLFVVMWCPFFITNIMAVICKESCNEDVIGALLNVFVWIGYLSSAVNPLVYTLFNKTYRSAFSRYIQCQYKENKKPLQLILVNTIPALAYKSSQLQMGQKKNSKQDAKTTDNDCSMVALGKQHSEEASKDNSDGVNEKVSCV
- experimental_protocol: Gq-mediated calcium transients (calcium mobilization), Fluo-4, HEK cells
- Format: cell-based
- measurement_conditions: Table 4; percentage of 5-HT response
Parameter EMAX (%) calcium mobilization: see the listing below.

Item: COc1ccc(OC)c(C[C@@H](C)N)c1 | EMAX (%) calcium mobilization: 108.38%

---

- experimental_protocol: In vitro absorption, Caco-2 permeability
- Type: in vitro ADME
- measurement_conditions: human, Caco-2, pH 6.5, Caco-2, pH 6.5/7.4, 1.0×10^−5 M; read-out: % Recovery B-A, 2nd
reported_endpoint: recovery (%)
# number only, unit % dropped from output

1) COc1cc(C[C@@H](C)N)c(OC)cc1I: 88

Next:
For this compound ( COc1cc(CC(C)C)c(OC)cc1CCN ), measured recovery is 72

---

- experimental_protocol: In vitro absorption, Caco-2 permeability
- Type: in vitro ADME
- measurement_conditions: human, Caco-2, pH 6.5, Caco-2, pH 6.5/7.4, 1.0×10^−5 M; read-out: A-B Permeability, 1st
reported_endpoint: Papp A→B (×10⁻⁶ cm/s)
Give the quantity in ×10⁻⁶ cm/s, number only.

Recorded result, COc1cc(C[C@@H](C)N)c(OC)cc1I , Papp A→B: 23.7

Record summary for COc1cc(CC(C)C)c(OC)cc1CCN : reported Papp A→B = 10.9

---

- experimental_protocol: In vitro absorption, Caco-2 permeability
- Type: in vitro ADME
- measurement_conditions: human, Caco-2, pH 6.5, Caco-2, pH 6.5/7.4, 1.0×10^−5 M; read-out: A-B Permeability, 2nd
reported_endpoint: Papp A→B (×10⁻⁶ cm/s)
The figure you give is taken to be in ×10⁻⁶ cm/s; do not add the unit.

1) COc1cc(C[C@@H](C)N)c(OC)cc1I [R-DOI]: 23.2

COc1cc(CC(C)C)c(OC)cc1CCN [2C-iBu, 2,5-dimethoxy-4-isobutylphenethylamine] has a reported Papp A→B of 10.6

---

- experimental_protocol: In vitro metabolism, intrinsic clearance in human liver microsomes
- Assay type: in vitro ADME
- measurement_conditions: human, human liver microsomes, 1.0×10^−7 M; read-out: Half-life (minutes), Mean
reported_endpoint: half-life

1. COc1cc(CC(C)C)c(OC)cc1CCN [2C-iBu, 2,5-dimethoxy-4-isobutylphenethylamine]: > 60 min

Now examine the next entry.
Value of measured half-life for the entry COc1cc(C[C@@H](C)N)c(OC)cc1I [R-DOI] : > 60 min

---

# reported logD; entries follow
- experimental_protocol: log D at physiological pH
- Type: physicochemical
- measurement_conditions: pH 7.4
- Description: This differential in the physico-chemical properties could be one of the drivers in the observed increased plasma protein binding capability of 2Ci-Bu in comparison to R-DOI and the moderate changes in the Caco-2 A-B/B-A permeability profiles.
Please give the numeric answer without any surrounding text.

1) COc1cc(CC(C)C)c(OC)cc1CCN: 1.64

Proceed to the following item.
Record COc1cc(C[C@@H](C)N)c(OC)cc1I , field logD: 1.04

---

# key: entry, value: recovery
- experimental_protocol: In vitro protein binding in human plasma
- Assay type: in vitro ADME
- measurement_conditions: human, plasma, protein binding assay, 1.0×10^−5 M; read-out: % Recovery, Mean
Kindly provide the numeric value in % only, without the unit symbol.

Note to self: recovery recorded for COc1cc(CC(C)C)c(OC)cc1CCN [2C-iBu, 2,5-dimethoxy-4-isobutylphenethylamine] was 106

Record COc1cc(C[C@@H](C)N)c(OC)cc1I [R-DOI] . Reported recovery: 126

---

// pEC50 lookup, one value per entry
- study_system: UniProt:P28223
- experimental_protocol: β-arrestin-2 recruitment, PRESTO-Tango assay in HTLA cells
pEC50 (log units): -log10 of the concentration in mol/L.

Documented pEC50 of COc1cc(CC(C)N)c(OC)cc1CC(C)C (centres unmarked) : 8.23

Entry under test: COc1cc(CC(C)C)c(OC)cc1CCN . Its pEC50 was 7.87

---

- experimental_protocol: In vitro absorption, Caco-2 permeability
- Format: in vitro ADME
- measurement_conditions: human, Caco-2, pH 6.5, Caco-2, pH 6.5/7.4, 1.0×10^−5 M; read-out: % Recovery A-B, Mean
reported_endpoint: recovery (%)
Record the value in %, omitting the unit from your answer.

The measured recovery associated with COc1cc(C[C@@H](C)N)c(OC)cc1I [R-DOI] reads 72

COc1cc(CC(C)C)c(OC)cc1CCN [2C-iBu, 2,5-dimethoxy-4-isobutylphenethylamine] yielded recovery of 46

---

- experimental_protocol: In vitro protein binding in human plasma
- Type: in vitro ADME
- measurement_conditions: human, plasma, protein binding assay, 1.0×10^−5 M; read-out: % Recovery, 2nd
reported_endpoint: recovery (%)
Number in %, nothing else.

1. COc1cc(CC(C)C)c(OC)cc1CCN: 105

Could you now consider this next compound?
So, COc1cc(C[C@@H](C)N)c(OC)cc1I ? Its recovery was 126

---

Here the recorded EMAX (%) beta arrestin recruitment is given for each entry.
- study_system: 5-HT2AR-Tango construct (Homo sapiens, UniProt P28223)
- Construct: expressed in transfected cells; host or cells: HTLA cells (transient transfection)
- experimental_protocol: β-arrestin-2 recruitment, PRESTO-Tango assay in HTLA cells
- Assay type: cell-based
- measurement_conditions: Table 5; percentage of 5-HT response
In your response, put the unit directly after the numeric value.

1. COc1cc(C[C@@H](C)N)c(OC)cc1Br: 98.14%
2. COc1ccc(OC)c(CCN)c1: 10.98%
3. COc1cc(C(C)C)c(OC)cc1CC(C)N (stereo not drawn): 20.40%

5-HT2AR-Tango construct (Homo sapiens, UniProt P28223) data for COc1ccc(OC)c(C[C@@H](C)N)c1 ; its EMAX (%) beta arrestin recruitment: 65.51%

Tested system 5-HT2AR-Tango construct (Homo sapiens, UniProt P28223); EMAX (%) beta arrestin recruitment recorded for COc1cc(CCN)c(OC)cc1Br was 39.46%

Item: COc1cc(C(C)C)c(OC)cc1CCN | System: 5-HT2AR-Tango construct (Homo sapiens, UniProt P28223) | EMAX (%) beta arrestin recruitment: 3.46%

---

- study_system: UniProt P34969
- Sequence (P34969 whole entry): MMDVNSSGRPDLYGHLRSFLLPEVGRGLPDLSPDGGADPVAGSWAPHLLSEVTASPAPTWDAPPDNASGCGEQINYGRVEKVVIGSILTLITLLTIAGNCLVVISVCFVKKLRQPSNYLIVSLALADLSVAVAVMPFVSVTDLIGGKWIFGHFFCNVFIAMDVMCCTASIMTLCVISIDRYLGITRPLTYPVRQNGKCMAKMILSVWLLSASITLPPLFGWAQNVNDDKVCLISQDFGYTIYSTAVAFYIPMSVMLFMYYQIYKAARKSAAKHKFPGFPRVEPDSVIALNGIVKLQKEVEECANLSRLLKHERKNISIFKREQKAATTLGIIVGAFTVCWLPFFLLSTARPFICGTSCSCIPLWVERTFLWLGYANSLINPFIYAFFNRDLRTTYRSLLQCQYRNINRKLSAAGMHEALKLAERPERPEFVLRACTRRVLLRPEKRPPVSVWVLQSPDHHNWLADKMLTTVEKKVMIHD
reported_endpoint: pKi
# pKi = -log10(concentration in molar units)

// assay UniProt P34969, entry COc1cc(CC(C)C)c(OC)cc1CCN , pKi value = 6.50

---

# pEC50 calcium mobilization values compiled below
- study_system: human 5-HT2A receptor (Homo sapiens, UniProt P28223)
- Construct: expressed in transfected cells
- experimental_protocol: Gq-mediated calcium transients (calcium mobilization), Fluo-4, HEK cells
- Assay type: cell-based
- measurement_conditions: Table 4

1) COc1cc(C(C)C)c(OC)cc1CCN [2C-iP]: 7.59
2) COc1ccc(OC)c(CCN)c1 [2C-H]: 6.34
3) COc1cc(CCN)c(OC)cc1I [2C-I]: 8.14
4) COc1cc(CCN)c(OC)cc1Br [2C-B]: 8.11

Item: COc1cc(C(C)C)c(OC)cc1CC(C)N (centres unmarked) [DOiP] | pEC50 calcium mobilization: 8.29
